- assayedTarget: GST-β5cyto (GST fusion protein of the integrin β5 cytoplasmic domain) (UniProt P18084)
- Sequence (P18084 other isoform, or with tags, fused parts or gaps): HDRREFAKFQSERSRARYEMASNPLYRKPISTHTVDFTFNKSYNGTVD
- assayNotes: phage colonies recovered from β5-GST-coated wells divided by those from BSA wells
Note to self: β5/BSA Ratio under 100 means true (1), ties and anything higher get false (0).

binder: CYIWPDSGLC [phage displaying … (SEQ ID NO:105)]
className: false (0)
--
binder: DEEGYYMMR [phage displaying … (SEQ ID NO:110)]
className: true (1)
--
binder: KQFSYRYLL [phage displaying … (SEQ ID NO:111)]
className: true (1)
--
binder: CEPYWDGWFC [phage displaying … (SEQ ID NO:106)]
className: false (0)
--
binder: VVISYSMPD [phage displaying … (SEQ ID NO:112)]
className: true (1)
--
binder: SDWYYPWSW [phage displaying … (SEQ ID NO:113), selected on β5]
className: false (0)
